tested on: L1210 leukemia ip in BDF1 mice, survival T/C; experiment: NCI In Vivo Anticancer Drug Screen. Data for tumor model L1210 Leukemia (intraperitoneal) in B6D2F1 (BDF1) mice; conditions: endpoint: mean survival time; dose: 30.0 mg/kg/injection; schedule: Q01DX Z (ip); vehicle: carboxymethylcellulose (CMC); higher = longer survival
Toxic doses and inconclusive results are not listed.
Recorded T/C, one value per entry.

Before answering, review these 4 worked examples.
INSERT INTO measurements (recordsmiles, experimentalsystem, readoutvalue) VALUES
  ('NC(N)=N/N=C\c1ccc(O)c(O)c1', 'L1210 leukemia ip in BDF1 mice, survival T/C', '97 % of control'),
  ('C/C(=N/N=C(N)N)C(C)C', 'L1210 leukemia ip in BDF1 mice, survival T/C', '100 % of control'),
  ('C/C(CCC(=O)O)=N/N=C(N)N', 'L1210 leukemia ip in BDF1 mice, survival T/C', '106 % of control'),
  ('CCOC(=O)N/N=C\C(C)=N\NC(=O)OCC', 'L1210 leukemia ip in BDF1 mice, survival T/C', '98 % of control');

In the following, a different compound is considered.
Request: I am curious: what T/C value has been reported for CC(=O)N\C(N)=N/N=C\C(C)=N/N=C(\N)NC(C)=O ?
Response: 94 % of control

====

Test system: L1210 leukemia ip in BDF1 mice, survival T/C
Experiment: NCI In Vivo Anticancer Drug Screen. Data for tumor model L1210 Leukemia (intraperitoneal) in B6D2F1 (BDF1) mice
Conditions: endpoint: mean survival time; dose: 100.0 mg/kg/injection; schedule: Q01DX009 (ip); vehicle: Klucel (hydroxypropylcellulose) (HPC); higher = longer survival
Experimental: The antitumor activity of compounds was measured in mice bearing transplantable tumors. Survival or tumor size were measured and the results are expressed as the measurement made in the treated group (T) divided by the measurement made in the vehicle treated control group (C). The tumor model used in this assay is L1210 Leukemia (intraperitoneal) in B6D2F1 (BDF1) mice
Toxic doses and inconclusive results are not listed.
Recorded T/C, one value per entry.

Before answering, review these 10 worked examples.
INSERT INTO assay_data (compound, readoutvalue) VALUES
  ('CN(C)c1ccc(P(c2ccc(N(C)C)cc2)c2ccc(N(C)C)cc2)cc1', '91 % of control'),
  ('COC(C)C(O)(C(N)=O)C(C)C (stereo not given)', '98 % of control'),
  ('CC(C)(O)C(C)(O)c1cccc(Cl)c1 (stereo not given)', '100 % of control'),
  ('COC(=O)C1CC2OC2C(C)C1C(=O)OC (stereo not given)', '95 % of control'),
  ('C=CCNC(=S)NCc1ccc(Cl)cc1', '94 % of control'),
  ('CN(C)C(=O)Nc1ccc(Cc2ccc(NC(=O)N(C)C)cc2)cc1', '96 % of control'),
  ('O=S(=O)(Nc1nccs1)c1ccc(NN=Nc2c(Cl)cc(Cl)cc2Cl)cc1', '96 % of control'),
  ('c1ccc(OCc2ccc(COc3ccccc3)cc2)cc1', '95 % of control'),
  ('CCOc1ccccc1NC(=O)c1c(Br)c(Br)c(Br)c(Br)c1C(=O)O', '102 % of control'),
  ('FC(F)(F)c1ccc(Cl)c(NC2=NCCCS2)c1', '96 % of control');

In the following, a different compound is considered.
Request: Query for L1210 leukemia ip in BDF1 mice, survival T/C: what T/C does the record show for Clc1ccc2sc3c(c2c1)CCNC3 ?
Response: 101 % of control
